Taken from PubChem BioAssay (NCI).

system: OVCAR-3 ovarian; assay: NCI-60 one-dose screen, 48 h; conditions: 10 µM unless noted
The panel holds about 83,000 compounds, 20% with a hit somewhere; the sample as a whole holds those more often. Calls of active or inactive are those of the source. Rule for the calls: active = growth percent below 10; inactive = the rest.
I would appreciate it if you answered using one of these outcomes: yes (1) for active, no (0) for inactive

Example results:
### Prompt // outcome(item) with item = Cc1cc(NS(=O)(=O)c2ccc(NC(=O)CSc3nc4ccccc4c(=O)n3-c3ccccc3)cc2)no1
### Response no (0)

### Prompt // outcome(item) with item = C#C[C@]1(O)CC[C@H]2[C@@H]3CC=C4c5sc(Nc6ncccc6C)nc5CC[C@]4(C)[C@H]3CC[C@@]21C
### Response no (0)

### Prompt // outcome(item) with item = CCOC(=O)c1cccc(NC2=C(Cl)C(=O)C(C)=C(C)C2=O)c1
### Response no (0)

### Prompt // outcome(item) with item = Cc1cc2nc(C(Cl)Cl)nc(-c3ccc(S(=O)(=O)N(C)C)cc3)n2n1
### Response no (0)

### Prompt // outcome(item) with item = CCCCN1C(=O)/C(=c2\sc3n(c2=O)C2C(NN=3)N(CC)C(=O)N2CC)c2cc(C)ccc21 (stereo not given)
### Response no (0)

### Prompt // outcome(item) with item = Cn1ncc2c(C(=O)c3ccc(F)cc3)nc(C(C)(C)C)nc21
### Response no (0)

Others:
### Prompt // outcome(item) with item = Cc1csc(/N=C(N)/N=C(\N)c2cccnc2)n1
### Response no (0)

### Prompt // outcome(item) with item = COC(=O)c1cccc(NC2=C(Cl)C(=O)C(C)=C(C)C2=O)c1
### Response no (0)

### Prompt // outcome(item) with item = Cc1ccc(C)c(NC2=C(Cl)C(=O)c3nc(C)ccc3C2=O)c1
### Response yes (1)

### Prompt // outcome(item) with item = CCCCCCOC(=O)c1cc(-c2ccc(F)cc2)nc2ccccc12
### Response no (0)
